- METHOD DESCRIPTION: in vivo
- Set-up: species or system Sprague-Dawley (SD) rats
- STUDY CONDITIONS: Sprague-Dawley, rat, plasma, po, 60 mg/kg

{"MOLECULE": "CC(C)=CCC[C@](C)(O[C@@H]1O[C@H](CO)[C@@H](O)[C@H](O)[C@H]1O)[C@H]1CC[C@]2(C)[C@@H]1[C@H](O)C[C@@H]1[C@@]3(C)CC[C@H](O)C(C)(C)[C@@H]3[C@@H](O[C@@H]3O[C@H](CO)[C@@H](O)[C@H](O)[C@H]3O)C[C@]12C [GRg1, ginsenoside Rg1]", "half-life": "11.7 h"}
{"MOLECULE": "CC(C)=CCC[C@](C)(O[C@@H]1O[C@H](CO)[C@@H](O)[C@H](O)[C@H]1O)[C@H]1CC[C@]2(C)[C@@H]1[C@H](O)C[C@@H]1[C@@]3(C)CC[C@H](O)C(C)(C)[C@@H]3[C@@H](O[C@@H]3O[C@H](CO)[C@@H](O)[C@H](O)[C@H]3O[C@@H]3O[C@@H](C)[C@H](O)[C@@H](O)[C@H]3O)C[C@]12C [GRe, ginsenoside Re]", "half-life": "5.25 h"}
{"MOLECULE": "CC(C)=CCC[C@](C)(O[C@@H]1O[C@H](CO)[C@@H](O)[C@H](O)[C@H]1O)[C@H]1CC[C@]2(C)[C@@H]1[C@H](O)C[C@@H]1[C@@]3(C)CC[C@H](O[C@@H]4O[C@H](CO)[C@@H](O)[C@H](O)[C@H]4O[C@@H]4O[C@H](CO)[C@@H](O)[C@H](O)[C@H]4O)C(C)(C)[C@@H]3CC[C@]12C [GRd, ginsenoside Rd]", "half-life": "42.8 h"}
